These entries and their values trace back to paper PMC4139024.

human carbonic anhydrase I (hCA I) (Homo sapiens, UniProt P00915): recorded IC50 for assorted compounds
Sequence (P00915 whole entry): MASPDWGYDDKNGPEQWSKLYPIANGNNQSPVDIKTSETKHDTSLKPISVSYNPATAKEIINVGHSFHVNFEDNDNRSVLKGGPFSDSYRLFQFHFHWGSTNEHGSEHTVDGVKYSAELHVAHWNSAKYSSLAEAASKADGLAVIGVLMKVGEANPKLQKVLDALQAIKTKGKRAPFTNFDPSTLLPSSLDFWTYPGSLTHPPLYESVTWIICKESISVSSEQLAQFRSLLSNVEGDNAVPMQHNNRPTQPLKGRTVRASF

SMILES STRING	IC50, µM
Cn1cc(/C=C/C(=O)c2cccc([N+](=O)[O-])c2)c2ccccc21	8.38
Cn1cc(/C=C/C(=O)c2ccccc2)c2ccccc21	12.8
Cn1c(=O)c2c(-c3cn(C)c4ccccc34)cc(-c3ccc(Cl)cc3)nc2n(C)c1=O	12.4
Cn1cc(-c2cc(-c3cccc([N+](=O)[O-])c3)nc3c2c(=O)[nH]c(=O)n3C)c2ccccc21	12.1
Cc1ccc(-c2cc(-c3cn(C)c4ccccc34)c3c(=O)[nH]c(=O)n(C)c3n2)cc1	11.6
COc1ccc(C(=O)/C=C/c2cn(C)c3ccccc23)cc1OC	8.34
Cn1cc(-c2cc(-c3ccc(Cl)cc3)nc3c2c(=O)[nH]c(=O)n3C)c2ccccc21	21.1
Cn1c(=O)c2c(-c3cn(C)c4ccccc34)cc(-c3ccc([N+](=O)[O-])cc3)nc2n(C)c1=O	10.2

---

Listed here are compounds together with their documented melting point.
ENDPOINT: melting point (°C)

COMPOUND	RECORDED MEASUREMENT
Cn1cc(/C=C/C(=O)c2ccc(Cl)cc2)c2ccccc21 [Compound 5d]	248
Cn1cc(-c2cc(-c3cccc([N+](=O)[O-])c3)nc3c2c(=O)[nH]c(=O)n3C)c2ccccc21 [Compound 7d]	397
Cn1cc(/C=C/C(=O)c2cccc([N+](=O)[O-])c2)c2ccccc21 [Compound 5g]	267
Cc1ccc(C(=O)/C=C/c2cn(C)c3ccccc23)cc1 [Compound 5c]	240
Cn1c(=O)c2c(-c3cn(C)c4ccccc34)cc(-c3ccccc3)nc2n(C)c1=O [Compound 7i]	320
COc1ccc(C(=O)/C=C/c2cn(C)c3ccccc23)cc1OC [Compound 5a]	271
COc1ccc(C(=O)/C=C/c2cn(C)c3ccccc23)cc1 [Compound 5b]	254
Cn1cc(/C=C/C(=O)c2ccc([N+](=O)[O-])cc2)c2ccccc21 [Compound 5f]	278

---

target: human carbonic anhydrase II (hCA II) (Homo sapiens)
pIC50: −log10 of the molar value.
Parameter pIC50: see the listing below.

SMILES STRING	pIC50
Cn1c(=O)c2c(-c3cn(C)c4ccccc34)cc(-c3cccc([N+](=O)[O-])c3)nc2n(C)c1=O	4.57
COc1ccc(C(=O)/C=C/c2cn(C)c3ccccc23)cc1OC	5.05
Cn1c(=O)c2c(-c3cn(C)c4ccccc34)cc(-c3ccccc3)nc2n(C)c1=O	5.09
COc1ccc(C(=O)/C=C/c2cn(C)c3ccccc23)cc1	4.99

---

Values of IC50 reported for human carbonic anhydrase I (hCA I) (Homo sapiens) appear below.

SMILES STRING	IC50
Cc1ccc(-c2cc(-c3cn(C)c4ccccc34)c3c(=O)n(C)c(=O)n(C)c3n2)cc1	7.61 µM
Cn1c(=O)c2c(-c3cn(C)c4ccccc34)cc(-c3ccccc3)nc2n(C)c1=O	8.72 µM
Cn1c(=O)c2c(-c3cn(C)c4ccccc34)cc(-c3cccc([N+](=O)[O-])c3)nc2n(C)c1=O	22.3 µM
Cn1cc(/C=C/C(=O)c2ccc(Cl)cc2)c2ccccc21	8.2 µM

---

pIC50: −log10 of the molar value.
In what follows, each item is paired with its pIC50 for UniProtKB P00918.
ENDPOINT: pIC50

SMILES STRING	ENDPOINT	RECORDED MEASUREMENT
Cn1c(=O)c2c(-c3cn(C)c4ccccc34)cc(-c3ccc(Cl)cc3)nc2n(C)c1=O	pIC50	4.61
Cn1cc(/C=C/C(=O)c2ccc([N+](=O)[O-])cc2)c2ccccc21	pIC50	5.03
Cc1ccc(-c2cc(-c3cn(C)c4ccccc34)c3c(=O)[nH]c(=O)n(C)c3n2)cc1	pIC50	4.92
Cn1c(=O)c2c(-c3cn(C)c4ccccc34)cc(-c3ccc([N+](=O)[O-])cc3)nc2n(C)c1=O	pIC50	5.02
Cn1cc(-c2cc(-c3cccc([N+](=O)[O-])c3)nc3c2c(=O)[nH]c(=O)n3C)c2ccccc21	pIC50	4.86
Cc1ccc(-c2cc(-c3cn(C)c4ccccc34)c3c(=O)n(C)c(=O)n(C)c3n2)cc1	pIC50	5.12
Cn1cc(-c2cc(-c3ccc(Cl)cc3)nc3c2c(=O)[nH]c(=O)n3C)c2ccccc21	pIC50	4.51
Cn1cc(/C=C/C(=O)c2ccc(Cl)cc2)c2ccccc21	pIC50	5.08
COc1ccc(-c2cc(-c3cn(C)c4ccccc34)c3c(=O)n(C)c(=O)n(C)c3n2)cc1	pIC50	4.60
Cc1ccc(C(=O)/C=C/c2cn(C)c3ccccc23)cc1	pIC50	4.91
COc1ccc(-c2cc(-c3cn(C)c4ccccc34)c3c(=O)n(C)c(=O)n(C)c3n2)cc1OC	pIC50	5.09
Cn1cc(/C=C/C(=O)c2cccc([N+](=O)[O-])c2)c2ccccc21	pIC50	5.14
Cn1cc(/C=C/C(=O)c2ccccc2)c2ccccc21	pIC50	5.04
COc1ccc(-c2cc(-c3cn(C)c4ccccc34)c3c(=O)[nH]c(=O)n(C)c3n2)cc1OC	pIC50	4.71

---

target: human carbonic anhydrase I (hCA I) (Homo sapiens)
IC50 strictly less than 10 µM = satisfied. Otherwise not satisfied.

SMILES STRING	GROUP LABEL
Cc1ccc(C(=O)/C=C/c2cn(C)c3ccccc23)cc1	not satisfied
COc1ccc(-c2cc(-c3cn(C)c4ccccc34)c3c(=O)n(C)c(=O)n(C)c3n2)cc1	not satisfied
COc1ccc(-c2cc(-c3cn(C)c4ccccc34)c3c(=O)n(C)c(=O)n(C)c3n2)cc1OC	satisfied
Cn1cc(/C=C/C(=O)c2ccc([N+](=O)[O-])cc2)c2ccccc21	not satisfied
COc1ccc(-c2cc(-c3cn(C)c4ccccc34)c3c(=O)[nH]c(=O)n(C)c3n2)cc1OC	not satisfied
COc1ccc(C(=O)/C=C/c2cn(C)c3ccccc23)cc1	satisfied

---

SMILES STRING	melting point
Cc1ccc(-c2cc(-c3cn(C)c4ccccc34)c3c(=O)[nH]c(=O)n(C)c3n2)cc1	399 to 400 °C
COc1ccc(-c2cc(-c3cn(C)c4ccccc34)c3c(=O)n(C)c(=O)n(C)c3n2)cc1	335.7 to 336 °C
Cn1c(=O)c2c(-c3cn(C)c4ccccc34)cc(-c3cccc([N+](=O)[O-])c3)nc2n(C)c1=O	349 to 350 °C
Cc1ccc(-c2cc(-c3cn(C)c4ccccc34)c3c(=O)n(C)c(=O)n(C)c3n2)cc1	340 to 341 °C
Cn1cc(-c2cc(-c3ccc(Cl)cc3)nc3c2c(=O)[nH]c(=O)n3C)c2ccccc21	385 to 389 °C
Cn1c(=O)c2c(-c3cn(C)c4ccccc34)cc(-c3ccc([N+](=O)[O-])cc3)nc2n(C)c1=O	347 to 349 °C
COc1ccc(-c2cc(-c3cn(C)c4ccccc34)c3c(=O)n(C)c(=O)n(C)c3n2)cc1OC	340 to 341 °C
Cn1c(=O)c2c(-c3cn(C)c4ccccc34)cc(-c3ccc(Cl)cc3)nc2n(C)c1=O	358 to 359 °C
COc1ccc(-c2cc(-c3cn(C)c4ccccc34)c3c(=O)[nH]c(=O)n(C)c3n2)cc1OC	333 to 334 °C
